Data credit: patent US8802664B2

VALUE KIND: melting point (°C)

molecule="CN1CCC(OC(c2nc3ccccc3[nH]2)c2cc3c(cc2O)CCC3)CC1 (stereo not drawn)" reading=152
molecule="CN1CCC(OC(c2nc3ccccc3[nH]2)c2cc(F)ccc2O)CC1 (stereo not drawn)" reading=142
molecule="CN1CCC(OC(c2nc3ccccc3[nH]2)c2cc(C(C)(C)C)ccc2O)CC1 (stereo not drawn)" reading=139

----------
Target: human H4 receptor (Homo sapiens, UniProt Q9H3N8)
Construct: expressed in transfected cells
Sequence (Q9H3N8 whole entry): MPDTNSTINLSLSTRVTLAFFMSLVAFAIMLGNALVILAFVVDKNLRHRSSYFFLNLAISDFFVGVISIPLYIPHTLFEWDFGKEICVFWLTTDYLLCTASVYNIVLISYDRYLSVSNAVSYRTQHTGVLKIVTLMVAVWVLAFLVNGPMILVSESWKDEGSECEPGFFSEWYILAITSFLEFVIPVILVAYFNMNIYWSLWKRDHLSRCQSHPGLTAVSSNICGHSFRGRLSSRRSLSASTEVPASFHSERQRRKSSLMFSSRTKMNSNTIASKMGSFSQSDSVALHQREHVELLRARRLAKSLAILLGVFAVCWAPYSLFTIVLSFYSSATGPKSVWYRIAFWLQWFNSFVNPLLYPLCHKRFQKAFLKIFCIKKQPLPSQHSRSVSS
Assay: [3H]Histamine binding on membranes of CHO cells stably expressing human H4 receptor
VALUE KIND: Ki or IC50 activity class

molecule="CN1CCC(OC(c2cccc(OCCCl)c2)c2nc3ccccc3s2)CC1 (stereo not drawn) [Example 354]" reading="< 30 nM"
molecule="CN1CCC(OC(c2nc3ccccc3[nH]2)c2ccc(Cl)cc2O)CC1 (stereo not drawn) [Example 585]" reading="< 30 nM"
molecule="CN1CCC(OC(c2cccc(CCCCNC(=N)N)c2)c2nc3ccccc3s2)CC1 (stereo not drawn) [Example 374]" reading="< 30 nM"

Dear colleague, I am looking for the recorded Ki or IC50 activity class of the following molecule: CN1CCC(OC(c2cccc(C#CCCCCN)c2)c2nc3ccccc3[nH]2)CC1 (stereo not drawn) [Example 337]
< 30 nM

State the recorded Ki or IC50 activity class for this entry: CN1CCC(OC(c2cccc(OCCN3CCNCC3)c2)c2nc3ccccc3s2)CC1 (stereo not drawn) [Example 330]
< 300 nM

Need Ki or IC50 activity class of CN1CCC(OC(c2ccccc2)c2nc3cc(F)ccc3[nH]2)CC1 (stereo not drawn) [Example 166] , thanks.
< 30 nM

Ki or IC50 activity class lookup needed for CCOCCOc1cccc(C(NC2CCN(C)CC2)c2nc3ccccc3[nH]2)c1 (stereo not drawn) [Example 134] , thanks.
< 300 nM

Ki or IC50 activity class lookup needed for CN1CCC(OC(c2cccc(C#CCCO)c2)c2nc3ccccc3[nH]2)CC1 (stereo not drawn) [Example 191] , thanks.
< 300 nM

Would you mind telling me what Ki or IC50 activity class value was observed for CN1CCC(OC(c2cccc(C#CCCCCN)c2)c2nc3ccccc3s2)CC1 (stereo not drawn) [Example 319] ?
< 30 nM

Data request, read-out Ki or IC50 activity class, for CN1CCC(OC(c2nc3ccccc3[nH]2)c2ccc(F)cc2F)CC1 (stereo not drawn) [Example 221]
< 300 nM

So what does the record say about Ki or IC50 activity class for CN1CC(COC(c2cccc(Br)c2)c2nc3ccccc3[nH]2)C1 (stereo not drawn) [Example 506] ?
< 300 nM

Endpoint output: Ki or IC50 activity class of CCCOc1cccc(C(NC2CCN(C)CC2)c2nc3ccccc3s2)c1 (single isomer, unassigned) [Example 56] . Value?
< 300 nM

If you can, please state the reported Ki or IC50 activity class value of CN1CCC(OC(c2cccc(CCCCNC(=N)N)c2)c2nc3ccccc3[nH]2)CC1 (stereo not drawn) [Example 308] .
< 300 nM

Name the recorded Ki or IC50 activity class for Cc1cc(O)c(C(OC2CCN(C)CC2)c2nc3ccccc3[nH]2)cc1C (stereo not drawn) [Example 611] .
< 30 nM
